Assay: Half-lives and pharmacokinetic parameters of polypeptides vs HM-1
Settings: in vivo
Peptide text beside a SMILES is read from it. * marks the point of attachment. X26 = O=C1C=CC(=O)N1CCOCCOCCOCCOCCOCCCCC(=O)*; X6 = O=C1C=CC(=O)N1CCOCCOCCOCCCCCCCC(=O)*; X1 = O=C1C=CC(=O)N1CCOCCCC(=O)*

compound	AUC(0-inf) / ng·h/mL
C[C@H](NC(=O)CNC(=O)[C@H](CCCNC(=N)N)NC(=O)CCCCOCCOCCOCCOCCOCCN1C(=O)C=CC1=O)C(=O)N[C@@H](CC(=O)O)C(=O)N[C@@H](CCCNC(=N)N)C(=O)N[C@@H](C)C(=O)NCC(=O)NCC(=O)NCC(=O)NCC(=O)N[C@@H](CCCNC(=N)N)C(=O)NCC(=O)N[C@@H](CC(=O)O)C(=O)O [X80] (X26-RGADRAGGGGRGD-OH)	34500
C[C@H](NC(=O)CNC(=O)[C@H](CCCNC(=N)N)NC(=O)CCCOCCN1C(=O)C=CC1=O)C(=O)N[C@@H](CC(=O)O)C(=O)N[C@@H](CCCNC(=N)N)C(=O)N[C@@H](C)C(=O)NCC(=O)NCC(=O)NCC(=O)NCC(=O)N[C@@H](CCCNC(=N)N)C(=O)NCC(=O)N[C@@H](CC(=O)O)C(=O)O [X51] (X1-RGADRAGGGGRGD-OH)	32500
C[C@H](NC(=O)CNC(=O)[C@H](CCCNC(=N)N)NC(=O)CCCCCCCOCCOCCOCCN1C(=O)C=CC1=O)C(=O)N[C@@H](CC(=O)O)C(=O)N[C@@H](CCCNC(=N)N)C(=O)N[C@@H](C)C(=O)NCC(=O)NCC(=O)NCC(=O)NCC(=O)N[C@@H](CCCNC(=N)N)C(=O)NCC(=O)N[C@@H](CC(=O)O)C(=O)O [X69] (X6-RGADRAGGGGRGD-OH)	26900

* * *

Test system: HUVECs
Assay: Transwell migration inhibition on HUVECs
Format: cell-based, human
Settings: HUVEC migration vs blank control; dose 0.05 μM
Peptide text beside a SMILES is read from it. * marks the point of attachment. X65 = O=C1C=CC(=O)N1c1cccc(CCCCCCCCCCCCC(=O)*)c1; X58 = O=C1C=CC(=O)N1c1cccc(CCCCCCCCCCCC(=O)*)c1; X74 = O=C1C=CC(=O)N1c1cccc(CCCCCCCCCCC(=O)*)c1; X84 = O=C1C=CC(=O)N1c1ccccc1CCCCCCCCCCCCC(=O)*; X59 = O=C1C=CC(=O)N1c1cccc(CCCCCCCCC(=O)*)c1; X72 = O=C1C=CC(=O)N1c1ccccc1CCCCCCCCCCC(=O)*; X60 = O=C1C=CC(=O)N1c1ccccc1CCCCCCCCCC(=O)*; X54 = O=C1C=CC(=O)N1c1cccc(CCCCCCC(=O)*)c1; X63 = O=C1C=CC(=O)N1c1ccccc1CCCCCCC(=O)*; X79 = O=C1C=CC(=O)N1c1cccc(CCC(=O)*)c1; X75 = O=C1C=CC(=O)N1c1cccc(CC(=O)*)c1
quantity_name: Inhibition rate (%)

compound	numeric_readout
C[C@H](NC(=O)CNC(=O)[C@H](CCCNC(=N)N)NC(=O)CCCCCCCCCCc1ccccc1N1C(=O)C=CC1=O)C(=O)N[C@@H](CC(=O)O)C(=O)N[C@@H](CCCNC(=N)N)C(=O)N[C@@H](C)C(=O)NCC(=O)NCC(=O)NCC(=O)NCC(=O)N[C@@H](CCCNC(=N)N)C(=O)NCC(=O)N[C@@H](CC(=O)O)C(=O)O [X22] (X72-RGADRAGGGGRGD-OH)	48.22
C[C@H](NC(=O)CNC(=O)[C@H](CCCNC(=N)N)NC(=O)CCCCCCCCCc1ccccc1N1C(=O)C=CC1=O)C(=O)N[C@@H](CC(=O)O)C(=O)N[C@@H](CCCNC(=N)N)C(=O)N[C@@H](C)C(=O)NCC(=O)NCC(=O)NCC(=O)NCC(=O)N[C@@H](CCCNC(=N)N)C(=O)NCC(=O)N[C@@H](CC(=O)O)C(=O)O [X21] (X60-RGADRAGGGGRGD-OH)	48.94
C[C@H](NC(=O)CNC(=O)[C@H](CCCNC(=N)N)NC(=O)CCCCCCCCCCCc1cccc(N2C(=O)C=CC2=O)c1)C(=O)N[C@@H](CC(=O)O)C(=O)N[C@@H](CCCNC(=N)N)C(=O)N[C@@H](C)C(=O)NCC(=O)NCC(=O)NCC(=O)NCC(=O)N[C@@H](CCCNC(=N)N)C(=O)NCC(=O)N[C@@H](CC(=O)O)C(=O)O [X35] (X58-RGADRAGGGGRGD-OH)	42.61
C[C@H](NC(=O)CNC(=O)[C@H](CCCNC(=N)N)NC(=O)CCCCCCc1ccccc1N1C(=O)C=CC1=O)C(=O)N[C@@H](CC(=O)O)C(=O)N[C@@H](CCCNC(=N)N)C(=O)N[C@@H](C)C(=O)NCC(=O)NCC(=O)NCC(=O)NCC(=O)N[C@@H](CCCNC(=N)N)C(=O)NCC(=O)N[C@@H](CC(=O)O)C(=O)O [X18] (X63-RGADRAGGGGRGD-OH)	40.73
C[C@H](NC(=O)CNC(=O)[C@H](CCCNC(=N)N)NC(=O)CCCCCCCCCCc1cccc(N2C(=O)C=CC2=O)c1)C(=O)N[C@@H](CC(=O)O)C(=O)N[C@@H](CCCNC(=N)N)C(=O)N[C@@H](C)C(=O)NCC(=O)NCC(=O)NCC(=O)NCC(=O)N[C@@H](CCCNC(=N)N)C(=O)NCC(=O)N[C@@H](CC(=O)O)C(=O)O [X34] (X74-RGADRAGGGGRGD-OH)	47.95
C[C@H](NC(=O)CNC(=O)[C@H](CCCNC(=N)N)NC(=O)Cc1cccc(N2C(=O)C=CC2=O)c1)C(=O)N[C@@H](CC(=O)O)C(=O)N[C@@H](CCCNC(=N)N)C(=O)N[C@@H](C)C(=O)NCC(=O)NCC(=O)NCC(=O)NCC(=O)N[C@@H](CCCNC(=N)N)C(=O)NCC(=O)N[C@@H](CC(=O)O)C(=O)O [X25] (X75-RGADRAGGGGRGD-OH)	48.06
C[C@H](NC(=O)CNC(=O)[C@H](CCCNC(=N)N)NC(=O)CCCCCCCCCCCCc1cccc(N2C(=O)C=CC2=O)c1)C(=O)N[C@@H](CC(=O)O)C(=O)N[C@@H](CCCNC(=N)N)C(=O)N[C@@H](C)C(=O)NCC(=O)NCC(=O)NCC(=O)NCC(=O)N[C@@H](CCCNC(=N)N)C(=O)NCC(=O)N[C@@H](CC(=O)O)C(=O)O [X36] (X65-RGADRAGGGGRGD-OH)	52.07
C[C@H](NC(=O)CNC(=O)[C@H](CCCNC(=N)N)NC(=O)CCCCCCCCCCCCc1ccccc1N1C(=O)C=CC1=O)C(=O)N[C@@H](CC(=O)O)C(=O)N[C@@H](CCCNC(=N)N)C(=O)N[C@@H](C)C(=O)NCC(=O)NCC(=O)NCC(=O)NCC(=O)N[C@@H](CCCNC(=N)N)C(=O)NCC(=O)N[C@@H](CC(=O)O)C(=O)O [X24] (X84-RGADRAGGGGRGD-OH)	49.57
C[C@H](NC(=O)CNC(=O)[C@H](CCCNC(=N)N)NC(=O)CCCCCCCCc1cccc(N2C(=O)C=CC2=O)c1)C(=O)N[C@@H](CC(=O)O)C(=O)N[C@@H](CCCNC(=N)N)C(=O)N[C@@H](C)C(=O)NCC(=O)NCC(=O)NCC(=O)NCC(=O)N[C@@H](CCCNC(=N)N)C(=O)NCC(=O)N[C@@H](CC(=O)O)C(=O)O [X32] (X59-RGADRAGGGGRGD-OH)	41.92
C[C@H](NC(=O)CNC(=O)[C@H](CCCNC(=N)N)NC(=O)CCc1cccc(N2C(=O)C=CC2=O)c1)C(=O)N[C@@H](CC(=O)O)C(=O)N[C@@H](CCCNC(=N)N)C(=O)N[C@@H](C)C(=O)NCC(=O)NCC(=O)NCC(=O)NCC(=O)N[C@@H](CCCNC(=N)N)C(=O)NCC(=O)N[C@@H](CC(=O)O)C(=O)O [X26] (X79-RGADRAGGGGRGD-OH)	46.81
C[C@H](NC(=O)CNC(=O)[C@H](CCCNC(=N)N)NC(=O)CCCCCCc1cccc(N2C(=O)C=CC2=O)c1)C(=O)N[C@@H](CC(=O)O)C(=O)N[C@@H](CCCNC(=N)N)C(=O)N[C@@H](C)C(=O)NCC(=O)NCC(=O)NCC(=O)NCC(=O)N[C@@H](CCCNC(=N)N)C(=O)NCC(=O)N[C@@H](CC(=O)O)C(=O)O [X30] (X54-RGADRAGGGGRGD-OH)	41.12

Every entry's value here was drawn from patent US20200270309A1.
